TESTED_TARGET: KRAS G12V binding to BRAF (Homo sapiens (Human), UniProt P01116+P62937, G12V)
Sequence (P01116-2 other isoform, or with tags, fused parts or gaps G12V): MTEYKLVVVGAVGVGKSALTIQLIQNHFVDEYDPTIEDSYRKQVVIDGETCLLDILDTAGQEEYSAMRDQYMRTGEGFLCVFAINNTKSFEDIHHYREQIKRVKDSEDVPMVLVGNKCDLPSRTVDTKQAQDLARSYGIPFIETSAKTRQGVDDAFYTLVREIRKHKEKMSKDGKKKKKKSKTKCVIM
Sequence (P62937 whole entry): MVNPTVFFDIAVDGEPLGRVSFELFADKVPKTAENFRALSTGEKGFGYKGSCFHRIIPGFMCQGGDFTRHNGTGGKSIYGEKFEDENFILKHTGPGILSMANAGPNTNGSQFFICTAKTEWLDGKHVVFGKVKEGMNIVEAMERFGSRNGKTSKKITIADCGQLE
PROTOCOL_NOTES: KRAS-BRAF with CYPA (500 nM) interaction assay (TR-FRET), G12V
Text: In this example, TR-FRET was also used to measure the compound or compound-CYPA dependent disruption of the KRAS G12C-BRAF complex. This protocol was also used to measure disruption of KRAS G12D or KRAS G12V binding to BRAF by a compound of the invention, respectively. […] TR-FRET signal was read on a PHERstar FSX microplate reader (Ex320 nm, Em 665/615 nm). […]
MEASURED_METRIC: IC50

get_value(item= CC(C)[C@@H](C(=O)N[C@H]1Cc2cc(O)cc(c2)-c2ccc3c(C(C)(C)C#N)cn(c3c2)CC(C)(C)COC(=O)[C@@H]2CCCN(N2)C1=O)N1CCCC2(CCN(C(=O)CCl)C2)C1=O (stereo partly drawn) [RM351, reference compound] , readout=IC50) returns > 10 µM

CCn1c(-c2cc(N3CCN(CC(F)(F)F)CC3)cnc2[C@H](C)OC)c2c3cc(c(F)cc31)-c1csc(n1)C[C@H](NC(=O)[C@H](C(C)C)N1CCC3(CN(C(=O)[C@H](F)Cl)C3)C1=O)C(=O)N1CCC[C@H](N1)C(=O)OCC(C)(C)C2 (atropisomer, axis not shown; (M)) has a reported IC50 of 1.36 µM

Just so you know, measured IC50 for CCn1c(-c2cc(N3CCN(CC(F)(F)F)CC3)cnc2[C@H](C)OC)c2c3cc(c(F)cc31)-c1csc(n1)C[C@H](NC(=O)[C@H](C(C)C)N(C)C(=O)C1(F)CCN(C(=O)[C@H](F)Cl)CC1)C(=O)N1CCC[C@H](N1)C(=O)OCC(C)(C)C2 (atropisomer, axis not shown; (M)) came out at 0.577 µM

Entry CO[C@@H](C)c1ncc(N2CCN(C)CC2)cc1-c1c2c3cc(c(C)cc3n1CC(F)(F)F)-c1csc(n1)C[C@H](NC(=O)[C@H](C(C)C)N(C)C(=O)C1(F)CCN(C(=O)[C@H](F)Cl)CC1)C(=O)N1CCC[C@H](N1)C(=O)OCC(C)(C)C2 (atropisomer, axis not shown; (M)) , IC50 reported as > 10 µM

Recorded result, CCn1c(-c2cc(N3CCN(CC(F)(F)F)CC3)cnc2[C@H](C)OC)c2c3cc(c(F)cc31)-c1csc(n1)C[C@H](NC(=O)[C@H](C(C)C)N1CC[C@@]3(CCN(C(=O)[C@H](F)Cl)C3)C1=O)C(=O)N1CCC[C@H](N1)C(=O)OCC(C)(C)C2 (atropisomer, axis not shown; (M)) , IC50: > 10 µM

CCn1c(-c2cc(N3CCN(C)CC3)cnc2[C@H](C)OC)c2c3cc(c(F)cc31)-c1csc(n1)C[C@H](NC(=O)[C@H](C(C)C)N1CCCC3(CCN(C(=O)[C@H](F)Cl)CC3)C1=O)C(=O)N1CCC[C@H](N1)C(=O)OCC(C)(C)C2 (atropisomer, axis not shown; (M)) yielded IC50 of > 10 µM

====

Test system: NCI-H358 (ATCC-CRL5807) cells
PROTOCOL_NOTES: Cell viability assay, G12C (NCI-H358)
Format: cell-based, human
PARTICULARS: Homo sapiens; KRAS cell viability, NCI-H358, 72 hrs, Cell Counting Kit-8
pIC50: −log10 of the molar value.
For each entry below, report its pIC50 value.

Entry CO[C@@H](C)c1ncc(N2CCN(C)CC2)cc1-c1c2c3cc(c(F)cc3n1CC(F)(F)F)-c1csc(n1)C[C@H](NC(=O)[C@H](C(C)C)N1CCC[C@@]3(CCN(C(=O)[C@H](F)Cl)C3)C1=O)C(=O)N1CCC[C@H](N1)C(=O)OCC(C)(C)C2 (single isomer, unassigned) [Example 16] , NCI-H358 (ATCC-CRL5807) cells data, pIC50 value: > 9.00

Response field pIC50 (NCI-H358 (ATCC-CRL5807) cells) for item CCn1c(-c2cc(N3CCN(CC(F)(F)F)CC3)cnc2[C@H](C)OC)c2c3cc(c(F)cc31)-c1csc(n1)C[C@H](NC(=O)[C@H](C(C)C)N1CCC3(CN(C(=O)[C@H](F)Cl)C3)C1=O)C(=O)N1CCC[C@H](N1)C(=O)OCC(C)(C)C2 (atropisomer, axis not shown; (M)) [Example 37] : > 9.00

Form: item CO[C@@H](C)c1ncc(N2CCN(C)CC2)cc1-c1c2c3c(F)c(ccc3n1CC(F)(F)F)-c1csc(n1)C[C@H](NC(=O)[C@H](C(C)C)N(C)C(=O)[C@H]1CCN(C(=O)[C@H](F)Cl)C1)C(=O)N1CCC[C@H](N1)C(=O)OCC(C)(C)C2 (atropisomer, axis not shown; (M)) [Example 1] ; test system NCI-H358 (ATCC-CRL5807) cells; pIC50: 8.30

Log: NCI-H358 (ATCC-CRL5807) cells, compound CO[C@@H](C)c1ncc(N2CCN(C)CC2)cc1-c1c2c3cc(c(C)cc3n1CC(F)(F)F)-c1csc(n1)C[C@H](NC(=O)[C@H](C(C)C)N(C)C(=O)C1(F)CCN(C(=O)[C@H](F)Cl)CC1)C(=O)N1CCC[C@H](N1)C(=O)OCC(C)(C)C2 (atropisomer, axis not shown; (M)) [Example 9] , pIC50 = 8.15

Case CCn1c(-c2cc(N3CCN(C)CC3)cnc2[C@H](C)OC)c2c3cc(c(F)cc31)-c1csc(n1)C[C@H](NC(=O)[C@H](C(C)C)N(C)C(=O)[C@H]1CCN(C(=O)[C@H](F)Cl)C1)C(=O)N1CCC[C@H](N1)C(=O)OCC(C)(C)C2 (atropisomer, axis not shown; (M)) [Example 32] , NCI-H358 (ATCC-CRL5807) cells, pIC50 recorded as > 9.00

pIC50 of CCn1c(-c2cc(N3CCOCC3)cnc2[C@H](C)OC)c2c3cc(c(F)cc31)-c1csc(n1)C[C@H](NC(=O)[C@H](C(C)C)N1CC[C@@]3(CCN(C(=O)[C@H](F)Cl)C3)C1=O)C(=O)N1CCC[C@H](N1)C(=O)OCC(C)(C)C2 (atropisomer, axis not shown; (M)) [Example 53] , assay on NCI-H358 (ATCC-CRL5807) cells, is > 9.00

Value (pIC50, NCI-H358 (ATCC-CRL5807) cells) for record CCn1c(-c2cc(N3CCOCC3)cnc2[C@H](C)OC)c2c3cc(c(F)cc31)-c1csc(n1)C[C@H](NC(=O)[C@H](C(C)C)N1CC[C@]3(CCN(C(=O)[C@H](F)Cl)C3)C1=O)C(=O)N1CCC[C@H](N1)C(=O)OCC(C)(C)C2 (atropisomer, axis not shown; (M)) [Example 51] = > 9.00

====

Exercise: state measured IC50 for each of the compounds provided.
Test system: phosphorylation of ERK, KRAS G12V in SW620
PROTOCOL_NOTES: pERK inhibition assay, KRAS G12V
Format: cell-based, human
PARTICULARS: Homo sapiens, SW-620, SW620, 4 hours
Procedure: This assay is to measure the ability of test compounds in inhibiting the phosphorylation of ERK, the downstream signaling of KRAS G12C in NCJ-H358 cells, KRAS G12D in AGS cells, and KRAS G12V in SW620. […] The amount of phosphor-ERK was determined using an antibody specific for phosphorylated form of ERK. […] 50 μL stop solution (abcam-ab171529) were added, and then read the signal (OD450) by EnVision. IC50 was determined by fitting a 4-parameter sigmoidal concentration response model.
Use nM as the unit, but write only the number.

Summary for this compound, CO[C@@H](C)c1ncc(N2CCN(CC(F)(F)F)CC2)cc1-c1c2c3cc(c(F)cc3n1CC(F)(F)F)-c1csc(n1)C[C@H](NC(=O)[C@H](C(C)C)N1CCC3(CCN(C(=O)[C@H](F)Cl)CC3)C1=O)C(=O)N1CCC[C@H](N1)C(=O)OCC(C)(C)C2 (atropisomer, axis not shown; (M)) [Example 47] : IC50 is 176

Input CCn1c(-c2cc(N3CCOCC3)cnc2[C@H](C)OC)c2c3cc(c(F)cc31)-c1csc(n1)C[C@H](NC(=O)[C@H](C(C)C)N(C)C(=O)C1(F)CCN(C(=O)[C@H](F)Cl)CC1)C(=O)N1CCC[C@H](N1)C(=O)OCC(C)(C)C2 (atropisomer, axis not shown; (M)) [Example 54] . Output IC50: 15

What the record says about CCn1c(-c2cc(N3CCOCC3)cnc2[C@H](C)OC)c2c3cc(c(F)cc31)-c1csc(n1)C[C@H](NC(=O)[C@H](C(C)C)N1CCC3(CN(C(=O)[C@H](F)Cl)C3)C1=O)C(=O)N1CCC[C@H](N1)C(=O)OCC(C)(C)C2 (atropisomer, axis not shown; (M)) [Example 52] : IC50 is 58

Given item CCn1c(-c2cc(N3CCN(CC(F)(F)F)CC3)cnc2[C@H](C)OC)c2c3cc(c(F)cc31)-c1csc(n1)C[C@H](NC(=O)[C@H](C(C)C)N(C)C(=O)C1(F)CCN(C(=O)[C@H](F)Cl)CC1)C(=O)N1CCC[C@H](N1)C(=O)OCC(C)(C)C2 (atropisomer, axis not shown; (M)) [Example 49] , the value recorded as its IC50 is 20

The recorded IC50 for CO[C@@H](C)c1ncc(N2CCN(C)CC2)cc1-c1c2c3cc(c(F)cc3n1CC(F)(F)F)-c1csc(n1)C[C@H](NC(=O)[C@H](C(C)C)N1CC[C@@]3(CCN(C(=O)[C@H](F)Cl)C3)C1=O)C(=O)N1CCC[C@H](N1)C(=O)OCC(C)(C)C2 (atropisomer, axis not shown; (M)) [Example 4] is 48

# compound CO[C@@H](C)c1ncc(N2CCN(C)CC2)cc1-c1c2c3cc(c(F)cc3n1CC(F)(F)F)-c1csc(n1)C[C@H](NC(=O)[C@H](C(C)C)N(C)C(=O)C1(F)CCN(C(=O)[C@H](F)Cl)CC1)C(=O)N1CCC[C@H](N1)C(=O)OCC(C)(C)C2 (atropisomer, axis not shown; (M)) [Example 10] ; its IC50 = 6

The compound listed as CO[C@@H](C)c1ncc(N2CCN(CC(F)(F)F)CC2)cc1-c1c2c3cc(c(F)cc3n1CC(F)(F)F)-c1csc(n1)C[C@H](NC(=O)[C@H](C(C)C)N(C)C(=O)[C@H]1CCN(C(=O)[C@H](F)Cl)C1)C(=O)N1CCC[C@H](N1)C(=O)OCC(C)(C)C2 (atropisomer, axis not shown; (M)) [Example 26] shows IC50 equal to 14
